- ASSAY_EXPLANATION: Toxicity liver stage against HepG2, at 10uM
- Type: cell-based
- Parameters: test concentration 10 uM, cell line HepG2-A16-CD81EGFP
- MEASUREMENT_PARAMETERS: human, HepG2-A16-CD81EGFP cells; read-out: INHIBITION
MEASUREMENT_LABEL: cytotoxicity at 10 µM (%)
Report only the number, with the unit % understood.

Some molecules with known cytotoxicity at 10 µM results, for comparison:
{"MOLECULE": "COC(=O)c1cc(OC)c(OC)cc1N(C)S(C)(=O)=O", "UNIT_SPEC": "%", "ENDPOINT_RESULT": 7.43}
{"MOLECULE": "Cc1nnc([C@H]2CCN(CCCc3ccccc3)C2)o1", "UNIT_SPEC": "%", "ENDPOINT_RESULT": 2.87}
{"MOLECULE": "CC(C)c1nc(CN(C)C2CCN(Cc3nnc(C4CC4)o3)C2)no1 (stereo not given)", "UNIT_SPEC": "%", "ENDPOINT_RESULT": 5.87}
{"MOLECULE": "CN1CCC2(COCCN(Cc3cccc(C#N)c3)C2)C1 (stereo not given)", "UNIT_SPEC": "%", "ENDPOINT_RESULT": 0.0422}
{"MOLECULE": "N#Cc1cccc(S(=O)(=O)N2CCCCC2C(N)=O)c1 (stereo not given)", "UNIT_SPEC": "%", "ENDPOINT_RESULT": 0.645}
{"MOLECULE": "O=c1c(NCCCO)c(N2CCN(c3ccccc3)CC2)c1=O", "UNIT_SPEC": "%", "ENDPOINT_RESULT": -3.66}

Ask | For the molecule CCc1ccc2nc(NCCOCCO)cc(C)c2c1 , what cytotoxicity at 10 µM is on record?
Reply | -2.78

FYI, the data here is from ChEMBL document CHEMBL4513216.
